- studyTarget: human RORγt LBD (Homo sapiens (Human))
- Sequence (P51449 258-518): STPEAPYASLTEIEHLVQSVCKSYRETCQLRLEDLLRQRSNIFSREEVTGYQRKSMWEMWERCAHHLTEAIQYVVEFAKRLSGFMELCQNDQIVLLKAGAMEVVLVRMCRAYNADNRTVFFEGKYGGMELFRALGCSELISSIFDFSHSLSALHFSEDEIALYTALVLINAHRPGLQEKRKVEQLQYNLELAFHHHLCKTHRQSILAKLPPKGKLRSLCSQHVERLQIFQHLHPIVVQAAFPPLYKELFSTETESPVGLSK
- protocolText: RORγt reporter assay (GAL4-RORγt LBD luciferase, HEK293T cells)
- Type: cell-based
- experimentalConditions: HEK-293T, read-out: RORγt reporter Assay, % inhibition @ 6 μM, 6 μM, HEK293T cells
parameter: inhibition at 6 µM (%)

CCOc1nc2ccc(C(O)(c3ccc(OC)nc3)c3cncn3C)cc2c(Cl)c1Oc1ccccc1 (centres unmarked) [Example 10a]
95
COc1nc2ccc(C(O)(c3ccc(Cl)cc3)c3cncn3C)cc2c(Cl)c1Oc1ccccc1 (single isomer, unassigned) [Example 15b]
86
CN(c1ccccc1)c1c(Cl)nc2ccc(C(O)(c3ccc(Cl)cc3)c3cncn3C)cc2c1Cl (centres unmarked) [Example 38]
85
Cn1cncc1C(O)(c1ccc(Cl)cc1)c1ccc2nc(N3CCC3)c(Oc3ccc(C#N)cc3)c(Cl)c2c1 (single isomer, unassigned) [Example 32b]
101
CCN(CC)c1nc2ccc(C(O)(c3ccc(OC)nc3)c3cncn3C)cc2c(C(F)(F)F)c1Oc1ccc(Cl)cc1 (centres unmarked) [Example 28]
99
COc1c(Oc2ccccc2)c(Cl)nc2ccc(C(O)(c3ccc(Cl)cc3)c3cncn3C)cc12 (centres unmarked) [Example 18]
88
CCN(CC)c1nc2ccc(C(O)(c3ccc(OC)nc3)c3cncn3C)cc2c(Cl)c1Oc1ccccc1 (single isomer, unassigned) [Example 5b]
98
CCN(CC)c1nc2ccc(C(O)(c3ccc(Cl)cc3)c3cncn3C)cc2c(Cl)c1Oc1ccccc1 (centres unmarked) [Example 3a]
96
Cn1cncc1C(O)(c1ccc(C(F)(F)F)nc1)c1ccc2nc(C#N)c(Oc3ccccc3)c(Cl)c2c1 (centres unmarked) [Example 21]
80
CCN(CC)c1nc2ccc(C(O)(c3ccc(Cl)cc3)c3cncn3C)cc2c(Cl)c1Nc1ccccc1 (centres unmarked) [Example 45]
91
Cn1cncc1C(O)(c1ccc(Cl)cc1)c1ccc2nc(C#N)c(Oc3ccc(F)cc3)c(Cl)c2c1 (centres unmarked) [Example 23]
80
Cn1cncc1C(O)(c1ccc(Cl)cc1)c1ccc2nc(N3CCC3)c(Oc3ccc(C#N)cc3)c(Cl)c2c1 (centres unmarked) [Example 32a]
102
CCOc1nc2ccc(C(O)(c3ccc(Cl)cc3)c3cncn3C)cc2c(Cl)c1Oc1ccccc1 (single isomer, unassigned) [Example 2b]
92
CCN(CC)c1nc2ccc(C(O)(c3cncs3)c3cncn3C)cc2c(Cl)c1Oc1ccccc1 (centres unmarked) [Example 8]
95
